SYSTEM: PfUDN
PROTOCOL_DESCRIPTION: DNA helicase (unwinding) assay of PfUDN
Assay type: biochemical, Plasmodium falciparum
CONDITION_LABEL: inhibitor 0.5-5.0 μM; unit printed in text b27, not in table or picture labels; listed as daunorubicin; read-out: IC50, inhibition of helicase (DNA unwinding) activity of PfUDN
MEASURED_QUANTITY: IC50

>  <TEST_SMILES>
COc1cccc2c1C(=O)c1c(O)c3c(c(O)c1C2=O)C[C@@](O)(C(C)=O)C[C@@H]3O[C@H]1C[C@H](N)[C@H](O)[C@H](C)O1

>  <OBSERVED_RESULT>
~3 µM

$$$$

* * *

Catalogue of IC50 values
SYSTEM: PfUDN
PROTOCOL_DESCRIPTION: DNA helicase (unwinding) assay of PfUDN
Assay type: biochemical, Plasmodium falciparum
CONDITION_LABEL: inhibitor 0.5-5.0 μM; unit printed in text b27, not in table or picture labels; read-out: IC50, inhibition of helicase (DNA unwinding) activity of PfUDN

>  <MOLECULE>
Cn1cc(NC(=O)c2cc(NC(=O)CN=C(N)N)cn2C)cc1C(=O)NCCC(=N)N [Netropsin, netropsin]

>  <IC50>
4.7 µM

$$$$
>  <MOLECULE>
COC(=O)[C@@H]1c2cc3c(c(O)c2[C@@H](O[C@@H]2O[C@@H](C)[C@H](OC)[C@@](C)(OC)[C@H]2OC)C[C@]1(C)O)C(=O)c1c(O)cc2c(c1C3=O)O[C@@H]1O[C@@]2(C)[C@H](O)[C@@H](N(C)C)[C@@H]1O [Nogalamycin, nogalamycin]

>  <IC50>
3.5 µM

$$$$
>  <MOLECULE>
COc1cccc2c1C(=O)c1c(O)c3c(c(O)c1C2=O)C[C@@](O)(C(C)=O)C[C@@H]3O[C@H]1C[C@H](N)[C@H](O)[C@H](C)O1 [Daunorubicin, daunorubicin]

>  <IC50>
3 µM

$$$$
>  <MOLECULE>
CC[n+]1c(-c2ccccc2)c2cc(N)ccc2c2ccc(N)cc21 [Ethidium bromide, ethidium bromide]

>  <IC50>
4.8 µM

$$$$

* * *

SYSTEM: PfUDN
PROTOCOL_DESCRIPTION: ssDNA-dependent ATPase assay of PfUDN
Assay type: biochemical, Plasmodium falciparum
CONDITION_LABEL: inhibitor 0.2-5.0 μM (ciprofloxacin 0.5-30 μM); read-out: IC50, inhibition of ssDNA-dependent ATPase activity of PfUDN
pIC50: −log10 of the molar value.

>  <TEST_SMILES>
COc1cccc2c1C(=O)c1c(O)c3c(c(O)c1C2=O)C[C@@](O)(C(C)=O)C[C@@H]3O[C@H]1C[C@H](N)[C@H](O)[C@H](C)O1

>  <pIC50>
~5.52

$$$$

* * *

SYSTEM: PfUDN
PROTOCOL_DESCRIPTION: ssDNA-dependent ATPase assay of PfUDN
Assay type: biochemical, Plasmodium falciparum
CONDITION_LABEL: inhibitor 0.2-5.0 μM (ciprofloxacin 0.5-30 μM); unit printed in text b20, not in table or picture labels; listed as ciprofloxacin; read-out: IC50, inhibition of ssDNA-dependent ATPase activity of PfUDN

>  <TEST_SMILES>
O=C(O)c1cn(C2CC2)c2cc(N3CCNCC3)c(F)cc2c1=O

>  <IC50>
~10 µM

$$$$

* * *

System: PfUDN
PROTOCOL_DESCRIPTION: ssDNA-dependent ATPase assay of PfUDN
Assay type: biochemical, Plasmodium falciparum
CONDITION_LABEL: compound 20 μM, PfUDN 100 nM, reaction mixture (DNA) preincubated 15 min with compound, Figure 1A
Description: Standard protocol of ATPase assay was followed as described in the previous report. The hydrolysis of ATP catalyzed by PfUDN was assayed by measuring the formation of Pi from [γ-^32P] ATP. The reaction mixture of 10 μl contained [γ-^32P] […] This was followed by thin layer chromatography (TLC), and the quantitation was done using Alpha Imager-EP/Image-J software ( http://rsbweb.nih.gov/ij/). […]
MEASURED_QUANTITY: effect on ssDNA dependent ATPase activity of PfUDN

>  <COMPOUND>
CC[n+]1c(-c2ccccc2)c2cc(N)ccc2c2ccc(N)cc21 [Ethidium bromide, ethidium bromide]

>  <OBSERVED_RESULT>
top four inhibitors

$$$$
>  <COMPOUND>
COc1cccc2c1C(=O)c1c(O)c3c(c(O)c1C2=O)C[C@@](O)(C(C)=O)C[C@@H]3O[C@H]1C[C@H](N)[C@H](O)[C@H](C)O1

>  <OBSERVED_RESULT>
top four inhibitors

$$$$

* * *

Recorded measurements of pIC50, one per entry
SYSTEM: PfUDN
PROTOCOL_DESCRIPTION: ssDNA-dependent ATPase assay of PfUDN
Assay type: biochemical, Plasmodium falciparum
CONDITION_LABEL: inhibitor 0.2-5.0 μM (ciprofloxacin 0.5-30 μM); unit printed in text b20, not in table or picture labels; read-out: IC50, inhibition of ssDNA-dependent ATPase activity of PfUDN
pIC50: −log10 of the molar value.

>  <TEST_SMILES>
Cn1cc(NC(=O)c2cc(NC(=O)CN=C(N)N)cn2C)cc1C(=O)NCCC(=N)N

>  <SYSTEM>
PfUDN

>  <pIC50>
5.51

$$$$
>  <TEST_SMILES>
O=C(O)c1cn(C2CC2)c2cc(N3CCNCC3)c(F)cc2c1=O

>  <SYSTEM>
PfUDN

>  <pIC50>
5.00

$$$$
>  <TEST_SMILES>
COC(=O)[C@@H]1c2cc3c(c(O)c2[C@@H](O[C@@H]2O[C@@H](C)[C@H](OC)[C@@](C)(OC)[C@H]2OC)C[C@]1(C)O)C(=O)c1c(O)cc2c(c1C3=O)O[C@@H]1O[C@@]2(C)[C@H](O)[C@@H](N(C)C)[C@@H]1O

>  <SYSTEM>
PfUDN

>  <pIC50>
5.48

$$$$

Data provenance is paper PMC4234510.
